Target: Polyporus pinsitus laccase (Trametes villosa, UniProt Q99044)
Construct: made in house
Sequence (Q99044 22-520): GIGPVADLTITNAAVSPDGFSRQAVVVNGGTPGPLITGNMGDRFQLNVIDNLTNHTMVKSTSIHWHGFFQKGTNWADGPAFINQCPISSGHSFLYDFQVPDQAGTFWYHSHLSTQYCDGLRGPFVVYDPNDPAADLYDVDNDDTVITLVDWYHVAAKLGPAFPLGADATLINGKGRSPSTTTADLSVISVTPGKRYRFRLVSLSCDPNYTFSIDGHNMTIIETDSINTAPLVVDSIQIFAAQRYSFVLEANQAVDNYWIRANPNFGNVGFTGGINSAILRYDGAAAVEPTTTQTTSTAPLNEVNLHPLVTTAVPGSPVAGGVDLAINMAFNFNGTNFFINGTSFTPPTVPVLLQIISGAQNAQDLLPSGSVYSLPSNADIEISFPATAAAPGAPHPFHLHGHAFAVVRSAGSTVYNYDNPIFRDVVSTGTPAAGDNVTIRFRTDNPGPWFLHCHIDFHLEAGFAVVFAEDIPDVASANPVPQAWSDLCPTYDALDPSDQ
Test: Bleaching of methyl orange using rPpL and NOH-type enhancing agents (initial bleaching rate)
Format: biochemical
Details: pH 7; rPpL solution diluted 1:200; 0.2 mM mediator; 30° C.; large negative numbers = best performance
Hi there, I'd appreciate the recorded Initial changes per minute in A464 nm of methyl orange using rPpL for every entry that follows.
Kindly provide the numeric value in per minute only, without the unit symbol.

Item under review: O=c1c2ccccc2nnn1O [3-hydroxy-1,2,3-benzotriazin-4(3H)-one, 3-Hydroxy-1,2,3-benzotriazin-4(3H)-one] . Reported Initial changes per minute in A464 nm of methyl orange using rPpL?
0.000

# lookup: Initial changes per minute in A464 nm of methyl orange using rPpL of "CC[n+]1ccc(-c2ccc(S(=O)(=O)[O-])cc2)o1.O"
0.001

Initial changes per minute in A464 nm of methyl orange using rPpL lookup needed for [O-][n+]1cccc2ccccc21 [Quinoline-N-oxide] , thanks.
−0.002

###

Assignment: determine reported Initial changes per minute in A464 nm of methyl orange using rMtL for the given compounds.
Tested on: Recombinant Myceliophthora thermophila laccase (rMtL)
Assay: Bleaching of methyl orange using rMtL and NOH-type enhancing agents (initial bleaching rate)
Assay type: biochemical
Settings: pH 7; rMtL solution diluted 1:300; 0.2 mM mediator; 30° C.; large negative numbers = best performance
Only the number, expressed in per minute, is required.

# input compound: CC(=O)N(O)c1ccccc1 [N-hydroxyacetanilide, N-Hydroxyacetanilide] ; wanted: its Initial changes per minute in A464 nm of methyl orange using rMtL
−0.101

Which Initial changes per minute in A464 nm of methyl orange using rMtL is reported for this compound? "CC[n+]1ccc(-c2ccc(S(=O)(=O)[O-])cc2)o1.O"
0.000

I'd like to know its Initial changes per minute in A464 nm of methyl orange using rMtL. The compound in question is O=C1c2ccccc2C(=O)N1O [N-hydroxyphthalimide]
0.000

Need Initial changes per minute in A464 nm of methyl orange using rMtL of O=c1[nH]c(=O)[nH]c(=O)[nH]1 [Cyanuric acid] , thanks.
0.000

Which Initial changes per minute in A464 nm of methyl orange using rMtL value is on record for CS(=O)(=O)c1ccc2ccn(OC(=O)c3ccccc3)c2c1 [PFC-202] ?
0.005

// query Initial changes per minute in A464 nm of methyl orange using rMtL value for entry O=c1c2ccccc2nnn1O [3-hydroxy-1,2,3-benzotriazin-4(3H)-one, 3-Hydroxy-1,2,3-benzotriazin-4(3H)-one]
0.002

Request the reported Initial changes per minute in A464 nm of methyl orange using rMtL associated with On1nnc2ccccc21 [1-hydroxybenzotriazole, 1-Hydroxybenzotriazole]
−0.002

Could you tell me which Initial changes per minute in A464 nm of methyl orange using rMtL is on file for [O-][n+]1cccc2ccccc21 [Quinoline-N-oxide] ?
0.000

What value of Initial changes per minute in A464 nm of methyl orange using rMtL has been recorded for this entry: O=C(c1ccccc1)N(O)c1ccccc1 [N-benzoyl-N-phenylhydroxylamine, N-Benzoyl-N-phenylhydroxylamine]
−0.012

###

System: Recombinant Coprinus cinereus laccase (rCcL)
Experiment: Bleaching of methyl orange using rCcL and NOH-type enhancing agents (initial bleaching rate)
Assay type: biochemical
Details: pH 6; rCcL solution diluted 1:200; 0.2 mM mediator; 30° C.; large negative numbers = best performance
Assign Initial changes per minute in A464 nm of methyl orange using rCcL to each entry below.
Field: value (include unit after the number)

Find the recorded Initial changes per minute in A464 nm of methyl orange using rCcL belonging to "ON=C(c1ccccn1)c1ccccn1" and report it.
−0.008 per minute

Entry CC(=O)N(O)c1ccccc1 [N-hydroxyacetanilide, N-Hydroxyacetanilide] has what Initial changes per minute in A464 nm of methyl orange using rCcL?
−0.674 per minute

For the compound shown here, O=c1c2ccccc2nnn1O [3-hydroxy-1,2,3-benzotriazin-4(3H)-one, 3-Hydroxy-1,2,3-benzotriazin-4(3H)-one] , give the reported Initial changes per minute in A464 nm of methyl orange using rCcL.
−0.011 per minute

Item under review: "CS(=O)(=O)c1ccc2ccn(OC(=O)c3ccccc3)c2c1" . Reported Initial changes per minute in A464 nm of methyl orange using rCcL?
−0.016 per minute

Any idea what Initial changes per minute in A464 nm of methyl orange using rCcL was measured for O=C(c1ccccc1)N(O)c1ccccc1 [N-benzoyl-N-phenylhydroxylamine, N-Benzoyl-N-phenylhydroxylamine] ?
−0.529 per minute

Param item = "CC[n+]1ccc(-c2ccc(S(=O)(=O)[O-])cc2)o1.O" ; retrieve measured Initial changes per minute in A464 nm of methyl orange using rCcL.
−0.006 per minute

Record request: Initial changes per minute in A464 nm of methyl orange using rCcL value, item "O=c1[nH]c(=O)[nH]c(=O)[nH]1"
−0.012 per minute

###

Target: Polyporus pinsitus laccase (Trametes villosa)
Construct: made in house
Sequence (Q99044 22-520): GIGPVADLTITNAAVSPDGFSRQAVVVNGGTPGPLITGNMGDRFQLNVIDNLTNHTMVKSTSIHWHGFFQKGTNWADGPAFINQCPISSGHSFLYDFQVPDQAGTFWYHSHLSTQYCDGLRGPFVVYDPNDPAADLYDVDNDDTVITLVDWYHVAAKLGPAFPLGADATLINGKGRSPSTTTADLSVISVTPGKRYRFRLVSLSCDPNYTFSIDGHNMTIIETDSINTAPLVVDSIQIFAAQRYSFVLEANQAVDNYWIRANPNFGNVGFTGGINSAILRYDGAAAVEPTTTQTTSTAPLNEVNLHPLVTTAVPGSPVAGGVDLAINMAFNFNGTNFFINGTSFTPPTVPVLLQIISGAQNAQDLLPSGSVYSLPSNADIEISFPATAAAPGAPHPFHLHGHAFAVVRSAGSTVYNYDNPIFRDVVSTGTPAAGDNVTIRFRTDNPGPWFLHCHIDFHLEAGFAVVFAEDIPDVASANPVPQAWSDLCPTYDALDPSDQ
Assay: Bleaching of methyl orange using rPpL and NOH-type enhancing agents (initial bleaching rate)
Format: biochemical
Details: pH 7; rPpL solution diluted 1:200; 0.2 mM mediator; 30° C.; large negative numbers = best performance
RESULT_TYPE: Initial changes per minute in A464 nm of methyl orange using rPpL (per minute)
Number only, in per minute; omit the unit.

Requested read-out: Initial changes per minute in A464 nm of methyl orange using rPpL. Entry: On1nnc2ccccc21 [1-hydroxybenzotriazole, 1-Hydroxybenzotriazole]
−0.005

Query: Initial changes per minute in A464 nm of methyl orange using rPpL; subject: [O-][n+]1ccc2ccccc2c1 [Iso-quinoline-N-oxide]
−0.002

For the compound "CCOc1ccc(N=[N+]([O-])c2ccc(OCC)cc2)cc1" , what Initial changes per minute in A464 nm of methyl orange using rPpL is on record?
0.018

Consider the compound shown here: "O=c1[nH]c(=O)[nH]c(=O)[nH]1" What is its recorded Initial changes per minute in A464 nm of methyl orange using rPpL?
−0.002

Item O=C1c2ccccc2C(=O)N1O [N-hydroxyphthalimide] has what recorded Initial changes per minute in A464 nm of methyl orange using rPpL?
−0.001

Initial changes per minute in A464 nm of methyl orange using rPpL for O=C(c1ccccc1)N(O)c1ccccc1 [N-benzoyl-N-phenylhydroxylamine, N-Benzoyl-N-phenylhydroxylamine] ?
−0.012

Request the reported Initial changes per minute in A464 nm of methyl orange using rPpL associated with CC(=O)N(O)c1ccccc1 [N-hydroxyacetanilide, N-Hydroxyacetanilide]
−0.055

Which Initial changes per minute in A464 nm of methyl orange using rPpL is listed for "ON=C(c1ccccn1)c1ccccn1" ?
−0.005

Any idea what Initial changes per minute in A464 nm of methyl orange using rPpL was measured for "CS(=O)(=O)c1ccc2ccn(OC(=O)c3ccccc3)c2c1" ?
0.000

###

For each record, write down the corresponding Initial changes per minute in A464 nm of methyl orange using rPpL.
Target: Polyporus pinsitus laccase (Trametes villosa, UniProt Q99044)
Construct: made in house
Assay: Bleaching of methyl orange using rPpL and NOH-type enhancing agents (initial bleaching rate)
Type: biochemical
Conditions: pH 4; rPpL solution diluted 1:200; 0.2 mM mediator; 30° C.; large negative numbers = best performance
Field: numeric (per minute). Do not append units.

Which Initial changes per minute in A464 nm of methyl orange using rPpL value belongs to "O=c1[nH]c(=O)[nH]c(=O)[nH]1" ?
−0.037

Need Initial changes per minute in A464 nm of methyl orange using rPpL, item O=c1c2ccccc2nnn1O [3-hydroxy-1,2,3-benzotriazin-4(3H)-one, 3-Hydroxy-1,2,3-benzotriazin-4(3H)-one]
−0.020

Need Initial changes per minute in A464 nm of methyl orange using rPpL, item "CS(=O)(=O)c1ccc2ccn(OC(=O)c3ccccc3)c2c1"
−0.047

Entry under review: O=C(c1ccccc1)N(O)c1ccccc1 [N-benzoyl-N-phenylhydroxylamine, N-Benzoyl-N-phenylhydroxylamine] . Reported Initial changes per minute in A464 nm of methyl orange using rPpL?
−0.732

What value of measured Initial changes per minute in A464 nm of methyl orange using rPpL is listed for [O-][n+]1ccc2ccccc2c1 [Iso-quinoline-N-oxide] ?
−0.074

What does the record list as Initial changes per minute in A464 nm of methyl orange using rPpL for CC(=O)N(O)c1ccccc1 [N-hydroxyacetanilide, N-Hydroxyacetanilide] ?
−4.743

Which Initial changes per minute in A464 nm of methyl orange using rPpL value is on record for "CCOc1ccc(N=[N+]([O-])c2ccc(OCC)cc2)cc1" ?
0.121

Value lookup for Initial changes per minute in A464 nm of methyl orange using rPpL; key = On1nnc2ccccc21 [1-hydroxybenzotriazole, 1-Hydroxybenzotriazole]
−0.206

Suppose we examine the molecule "CC[n+]1ccc(-c2ccc(S(=O)(=O)[O-])cc2)o1.O" ; what Initial changes per minute in A464 nm of methyl orange using rPpL value has been reported?
−0.017

// lookup Initial changes per minute in A464 nm of methyl orange using rPpL for O=C1c2ccccc2C(=O)N1O [N-hydroxyphthalimide]
−0.050

Returns the measured Initial changes per minute in A464 nm of methyl orange using rPpL for the input molecule. Input: "ON=C(c1ccccn1)c1ccccn1"
−0.124

Suppose we examine the molecule [O-][n+]1cccc2ccccc21 [Quinoline-N-oxide] ; what Initial changes per minute in A464 nm of methyl orange using rPpL value has been reported?
−0.074

Reference source for all entries: patent US6399561B1
